# System: HOP-92 NSCLC
# Experimental Details: NCI-60 one-dose screen, 48 h (100 = growth as untreated, 0 = no growth, -100 = all killed)
# Condition: 10 µM unless noted
This is part of a sample that, as a whole, favours compounds with a hit. Of some 83,000 tested, about 20% had one in any assay.
// boundary case: growth equal to 40% maps to label 0; strictly smaller maps to label 1

Example cases with answers are listed next.
>  <Molecule>
C=CC(=O)N1CCN(c2ccc3cccc(NC(=O)c4cnc(C)cn4)c3n2)CC1

>  <System Name>
HOP-92 NSCLC

>  <Category Label>
label 0

$$$$
>  <Molecule>
O=C(c1ccc(F)c(Cl)c1)N1c2ccccc2Sc2ccccc21

>  <System Name>
HOP-92 NSCLC

>  <Category Label>
label 1

$$$$
>  <Molecule>
COc1cc(-c2cc(-c3ccc(Nc4ncnc5cc(Cl)ccc45)cc3)nc(N3CCN(C)CC3)n2)cc(OC)c1OC

>  <System Name>
HOP-92 NSCLC

>  <Category Label>
label 0

$$$$
>  <Molecule>
O=C1N[C@@H]2[C@@H](O)[C@@H](O)[C@H](O)C[C@H]2c2cc3c(c(O)c21)OCCO3

>  <System Name>
HOP-92 NSCLC

>  <Category Label>
label 1

$$$$
>  <Molecule>
CN(C)c1ccc(C(=NO)c2ccc(N(C)C)cc2)cc1

>  <System Name>
HOP-92 NSCLC

>  <Category Label>
label 1

$$$$
>  <Molecule>
O=C(CN1C(=O)NC2NC(=O)NC21)N/N=C/c1ccc(Cl)cc1Cl (stereo not drawn)

>  <System Name>
HOP-92 NSCLC

>  <Category Label>
label 0

$$$$

Query :: Bench note: check whether CC[C@]12C=CCN3CC[C@@]4(c5ccc(OC)cc5N(C)[C@H]4[C@@](O)(C(=O)OC)[C@@H]1OC(=O)CCCN1CCOCC1)[C@@H]32 shows growth below 40%
Result :: label 0

Query :: Hello, is growth of the following molecule strictly smaller than 40%? C[C@@H]1CC[C@@]2(OC1)O[C@H]1C[C@H]3[C@@H]4CC=C5C[C@@H](O[C@@H]6O[C@H](CO)[C@@H](O[C@@H]7O[C@@H](CO)[C@H](O)[C@H]7O)[C@H](O)[C@H]6O[C@@H]6O[C@@H](C)[C@H](O)[C@@H](O)[C@H]6O)CC[C@]5(C)[C@H]4CC[C@]3(C)[C@H]1[C@@H]2C
Result :: label 1

Query :: Below 40% on growth? Entry COc1ccc(NC(=O)c2cccc(C3CCc4c(cc(OC)c(OC)c4OC)O3)c2)cc1 (stereo not drawn)
Result :: label 1

Query :: Please indicate whether the reported growth of CN(C)c1ccc(/C=C/C(=O)c2ccccc2)cc1 is strictly below 40%.
Result :: label 0

Query :: Hello, is growth of the following molecule strictly smaller than 40%? COc1ccc(Nc2ncccc2NC(=O)c2cn(Cc3cccc(Oc4ccccc4)c3)nn2)cc1OC
Result :: label 0

Query :: Does the reported growth of the following molecule sit strictly below 40%? CCOC(=O)c1n[nH]n2c1nc(=O)c1cnn(C)c12
Result :: label 0

Query :: # check: growth < 40% for CCOC(=O)NN1CC(O)=C(c2nc(-c3ccc(Br)cc3)cs2)C1=N
Result :: label 0

Query :: Hello, I'm reviewing records and need to know if growth of Cc1ccccc1OCC(O)COc1ccccc1C is below 40%. Could you check?
Result :: label 0

Query :: # strict comparison: is reported growth < 40%? input = C=CC(=O)NCCOc1cccc(Nc2cc(NCCCNC(=O)C3CCC3)c(Br)cn2)c1
Result :: label 1

Query :: Find out if reported growth for Cc1c2ccccc2nc2c1ccc1cccnc12 is less than 40%
Result :: label 0

Query :: Is it true that growth reported for Cn1c(=O)c2c(nc(NC3=NS(=O)(=O)c4ccccc43)n2Cc2ccccc2)n(C)c1=O is less than 40%?
Result :: label 0
